Each item that follows carries a reported pIC50.
system: PC-3; assay: Antiproliferative activity against human PC-3 cells assessed as inhibition of cell proliferation by MTT assay; assay type: functional, cell-based
Kindly note that pIC50 refers to -log10 of the concentration in mol/L and answer with the value alone.

Ask: What value of pIC50 has been reported for the following molecule? COc1ccc(-c2nc(SCC(=O)O[C@H]3CC[C@@]4(C)[C@@H](CC[C@]5(C)[C@H]4C[C@@H](O)[C@@H]4C([C@@]6(C)CCCC(C)(C)O6)CC[C@]45C)C3(C)C)[nH]c(=O)c2C#N)cc1 (some centres undefined)
Reply: 5.02

Ask: What value of pIC50 has been reported for the following molecule? CC(C)c1ccc(-c2nc(SCC(=O)O[C@H]3CC[C@@]4(C)[C@@H](CC[C@]5(C)[C@H]4C[C@@H](O)[C@@H]4C([C@@]6(C)CCCC(C)(C)O6)CC[C@]45C)C3(C)C)[nH]c(=O)c2C#N)cc1 (some centres undefined)
Reply: 5.15

###

system: PC-3; assay: Antiproliferative activity against human PC-3 cells assessed as inhibition of cell proliferation by MTT assay; type: functional, cell-based
recorded-metric: IC50 (µM)
Return type: number; implicit unit µM.

Below: 2 molecules and their reported IC50.
# molecule, units-symbol, IC50
measured = [
    ("CC1(C)CCC[C@](C)([C@@H]2CC[C@]3(C)[C@@H]2[C@H](O)CC2[C@@]4(C)CC[C@H](OC(=O)CSc5nc(-c6ccc(C(F)(F)F)cc6)c(C#N)c(=O)[nH]5)C(C)(C)[C@@H]4CC[C@]23C)O1 (some centres undefined)", "µM", 8.74),
    ("Cc1ccc(-c2nc(SCC(=O)O[C@H]3CC[C@@]4(C)[C@@H](CC[C@]5(C)[C@H]4C[C@@H](O)[C@@H]4[C@H]([C@@]6(C)CCCC(C)(C)O6)CC[C@]45C)C3(C)C)[nH]c(=O)c2C#N)cc1", "µM", 7.73),
]

Consider now this further molecule.
Ask: Lab request: please report IC50 under test system PC-3 for CC1(C)CCC[C@](C)(C2CC[C@]3(C)[C@@H]2[C@H](O)C[C@H]2[C@@]4(C)CC[C@H](OC(=O)CSc5nc(-c6c[nH]c7ccccc67)c(C#N)c(=O)[nH]5)C(C)(C)[C@@H]4CC[C@]23C)O1 (some centres undefined)
Reply: 10.8

###

assay: Cytotoxicity against mouse L929 cells assessed as inhibition of cell proliferation by MTT assay; assay type: toxicity, cell-based
Each item that follows carries a reported pIC50.
Kindly note that pIC50 refers to -log10 of the concentration in mol/L and answer with the value alone.

Below: 2 compounds and their reported pIC50.
# compound, value-observed
rows = [
    ("CC1(C)CCC[C@](C)([C@@H]2CC[C@]3(C)[C@@H]2[C@H](O)C[C@H]2[C@@]4(C)CC[C@H](OC(=O)CSc5nc(-c6ccncc6)c(C#N)c(=O)[nH]5)C(C)(C)[C@@H]4CC[C@]23C)O1", 4.11),
    ("CC1(C)CCC[C@](C)([C@@H]2CC[C@]3(C)[C@@H]2[C@H](O)CC2[C@@]4(C)CC[C@H](OC(=O)CSc5nc(-c6ccc(Cl)cc6)c(C#N)c(=O)[nH]5)C(C)(C)[C@@H]4CC[C@]23C)O1 (stereo not given in full)", 4.11),
]

Consider now this further compound.
Ask: What value of pIC50 has been reported for the following compound? CC1(C)CCC[C@](C)([C@@H]2CC[C@]3(C)[C@@H]2[C@H](O)CC2[C@@]4(C)CC[C@H](OC(=O)CSc5nc(-c6ccc(Br)cc6)c(C#N)c(=O)[nH]5)C(C)(C)[C@@H]4CC[C@]23C)O1 (stereo not given in full)
Reply: 4.11

The origin of these recorded values is ChEMBL document CHEMBL5236586.
